pIC50: −log10 of the molar value.
Literature roundup of Lysine-specific demethylase 5B (Homo sapiens) data, read-out pIC50.
value.kind: pIC50

Example compounds with recorded pIC50:
{"smiles.string": "CC(C)c1ccc(-n2ncc3c(C(=O)NCCN4CCN(C)CC4)cc(-c4ccccc4)nc32)cc1", "pIC50": 5.40}
{"smiles.string": "O=C(O)c1ccnc(-n2nccc2OCc2ccc(C3CC3)cc2)c1", "pIC50": 8.10}
{"smiles.string": "O=C(O)c1ccnc(-n2nccc2-c2ccc(F)cc2F)c1", "pIC50": 6.77}
{"smiles.string": "Cc1cccc(-n2ncc3c(C(=O)NCCN4CCN(C)CC4)cc(-c4ccc5ccccc5c4)nc32)c1", "pIC50": 5.03}
{"smiles.string": "O=C(O)c1ccnc(-n2nccc2-c2ccc(F)cc2)c1", "pIC50": 6.62}

[1] CC(C)c1c(-c2cnn(C(C)(C)C)c2)[nH]c2c(C#N)cnn2c1=O
[2] O=C(O)c1ccnc(-n2nccc2OCc2ccccc2F)c1
[3] CCc1cnn(-c2cc(C(=O)O)ccn2)c1OCc1ccc(F)cc1
[4] Cc1ccc(-c2ccnn2-c2cc(C(=O)O)ccn2)cc1
Place the items in sequence of falling pIC50. Record the ranking as a list of labels in the requested order. 1, 3, 2, 4
(1: 8.33, 3: 7.62, 2: 7.38, 4: 6.70)

* * *

Literature roundup of Lysine-specific demethylase 5B (Homo sapiens, UniProt Q9UGL1) data, read-out pIC50.
pIC50: −log10 of the molar value.
value.kind: pIC50

Example compounds with recorded pIC50:
{"smiles.string": "CCCCCCN(C)CCc1ccc(-c2[nH]c3c(C#N)cnn3c(=O)c2C(C)C)cc1", "pIC50": 8.87}
{"smiles.string": "Cc1ccccc1-n1ncc2c(C(=O)NCCN3CCN(C)CC3)cc(-c3ccccc3)nc21", "pIC50": 5.38}
{"smiles.string": "O=C(O)c1ccnc(-n2nccc2-c2cccc(F)c2)c1", "pIC50": 6.30}
{"smiles.string": "CCN(CCN(C)C)C(=O)CNCc1cc(C(=O)O)ccn1", "pIC50": 8.65}
{"smiles.string": "O=C(O)c1ccnc(-n2nccc2OCc2cccc(F)c2)c1", "pIC50": 7.66}
{"smiles.string": "N#Cc1ccc(COc2ccnn2-c2cc(C(=O)O)ccn2)cc1", "pIC50": 9.22}
{"smiles.string": "O=C(O)CCNc1cc(N2CCc3ccccc3CC2)nc(-c2ccccn2)n1", "pIC50": 6.77}
{"smiles.string": "CC(C)c1ccc(-n2ncc3c(C(=O)NCCN4CCN(C)CC4)cc(-c4ccc5ccccc5c4)nc32)cc1", "pIC50": 5.51}

[a] CC(C)n1ncc2c(C(=O)NCc3cn(Cc4ccccc4)nn3)cc(-c3ccc4ccccc4c3)nc21
[b] COc1cc(-c2ccnn2-c2cc(C(=O)O)ccn2)ccc1C
[c] CCc1ccc(COc2ccnn2-c2cc(C(=O)O)ccn2)cc1
Place the items in sequence of falling pIC50. Record the ranking as a list of labels in the requested order. c, b, a

[a] Cc1ccc(COc2ccnn2-c2cc(C(=O)O)ccn2)cc1
[b] O=C(O)CCNc1cc(N2CCc3ccccc3CC2)nc(-c2cccnc2)n1
Of the pair a and b , name the member with the lesser recorded pIC50. Label of pick, please. b
(b: 4.48, a: 8.40)

* * *

Literature roundup of Lysine-specific demethylase 5B (Homo sapiens, UniProt Q9UGL1) data, read-out IC50.
value.kind: IC50 (nM)

Example molecules with recorded IC50:
{"smiles.string": "CCCCCCN(C)Cc1ccc(-c2[nH]c3c(C#N)cnn3c(=O)c2C(C)C)cc1", "tested.on": "Lysine-specific demethylase 5B (Homo sapiens, UniProt Q9UGL1)", "numeric.readout": 51.1}
{"smiles.string": "CC(C)c1c(-c2ccccc2)[nH]c2c(C#N)cnn2c1=O", "tested.on": "Lysine-specific demethylase 5B (Homo sapiens, UniProt Q9UGL1)", "numeric.readout": 337}

[A] COc1cc(Cl)ccc1COc1ccnn1-c1cc(C(=O)O)ccn1
[B] CCN(CCN(C)C(C)C)C(=O)CNCc1cc(C(=O)O)ccn1
Of the pair A and B , name the member with the lesser recorded IC50. Label of pick, please. A
